- System: Serratia marcescens No. 1
- method.notes: Minimum growth inhibitory concentration, Serratia marcescens No. 1
- Format: cell-based
- Parameters: unit not given here
- test.context: Serratia marcescens No. 1
Attribute: Minimum Growth Inhibitory Concentration

Check out these entries, answers already filled in.
# compound, Minimum Growth Inhibitory Concentration
records = [
    ("Cn1c(SCC2=C(C(=O)O)N3C(=O)[C@@H](NC(=O)/C(=N\\OCc4cc(=O)c(O)cn4O)c4csc(N)n4)[C@H]3SC2)nnc(O)c1=O", 0.05),
    ("Nc1nc(/C(=N/OCc2cc(=O)c(O)c[nH]2)C(=O)N[C@@H]2C(=O)N3C(C(=O)[O-])=C(C[n+]4ccccc4)CS[C@H]23)cs1 [A, reference compound]", 0.20),
]

Next:
Quick one: Minimum Growth Inhibitory Concentration of Nc1nc(/C(=N/OCc2cc(=O)c(O)cn2O)C(=O)N[C@@H]2C(=O)N3C(C(=O)[O-])=C(C[n+]4ccccc4)CS[C@H]23)cs1 ?
0.10

* * *

- Test system: Escherichia coli No. 29
- method.notes: Minimum growth inhibitory concentration, Escherichia coli No. 29
- Format: cell-based
- Design: unit not given here
quantity.measured: Minimum Growth Inhibitory Concentration
No unit in the answer, please; the number alone is enough.

# molecule, quantity.measured, experimental.result
data = [
    ("C[n+]1ccc(SCC2=C(C(=O)[O-])N3C(=O)[C@@H](NC(=O)/C(=N\\OCc4cc(=O)c(O)cn4O)c4csc(N)n4)[C@H]3SC2)cc1 [Example 1]", "Minimum Growth Inhibitory Concentration", 0.05),
    ("CC(C)(O/N=C(\\C(=O)N[C@@H]1C(=O)N2C(C(=O)[O-])=C(C[n+]3ccccc3)CS[C@H]12)c1csc(N)n1)C(=O)O [B, Ceftazidime, reference compound]", "Minimum Growth Inhibitory Concentration", 0.20),
]

--- query ---
Minimum Growth Inhibitory Concentration for Nc1nc(/C(=N/OCc2cc(=O)c(O)c[nH]2)C(=O)N[C@@H]2C(=O)N3C(C(=O)[O-])=C(C[n+]4ccccc4)CS[C@H]23)cs1 [A, reference compound] ?
0.20

* * *

- Tested on: Pseudomonase cepacia M-0527
- method.notes: Minimum growth inhibitory concentration, Pseudomonase cepacia M-0527
- Format: cell-based
- Parameters: unit not given here
The following compounds are shown together with reported Minimum Growth Inhibitory Concentration values.

Example results:
# compound, study.target, experimental.result
data = [
    ("C[n+]1ccc(SCC2=C(C(=O)[O-])N3C(=O)[C@@H](NC(=O)/C(=N\\OCc4cc(=O)c(O)cn4O)c4csc(N)n4)[C@H]3SC2)cc1", "Pseudomonase cepacia M-0527", "< 0.025"),
    ("Nc1nc(/C(=N/OCc2cc(=O)c(O)c[nH]2)C(=O)N[C@@H]2C(=O)N3C(C(=O)[O-])=C(C[n+]4ccccc4)CS[C@H]23)cs1 [A, reference compound]", "Pseudomonase cepacia M-0527", 0.39),
    ("Nc1nc(/C(=N/OCc2cc(=O)c(O)cn2O)C(=O)N[C@@H]2C(=O)N3C(C(=O)[O-])=C(C[n+]4ccccc4)CS[C@H]23)cs1", "Pseudomonase cepacia M-0527", "< 0.025"),
    ("Cn1c(SCC2=C(C(=O)O)N3C(=O)[C@@H](NC(=O)/C(=N\\OCc4cc(=O)c(O)cn4O)c4csc(N)n4)[C@H]3SC2)nnc(O)c1=O", "Pseudomonase cepacia M-0527", "< 0.025"),
    ("C[n+]1ccc(SCC2=C(C(=O)[O-])N3C(=O)[C@@H](NC(=O)/C(=N\\OCc4cc(=O)c(O)cn4O)c4csc(N)n4)[C@H]3SC2)c2c1CCC2", "Pseudomonase cepacia M-0527", "< 0.025"),
]

Fill in the blank: the reported Minimum Growth Inhibitory Concentration of Nc1nc(/C(=N/OCc2cc(=O)c(O)cn2O)C(=O)N[C@@H]2C(=O)N3C(C(=O)[O-])=C(CSc4cc[n+](CCO)cc4)CS[C@H]23)cs1 is ____.
< 0.025

Which value of Minimum Growth Inhibitory Concentration has been reported for CC(C)(O/N=C(\C(=O)N[C@@H]1C(=O)N2C(C(=O)[O-])=C(C[n+]3ccccc3)CS[C@H]12)c1csc(N)n1)C(=O)O [B, Ceftazidime, reference compound] in the records?
0.78

* * *

- Tested on: Pseudomonas aeruginosa E-2
- method.notes: Minimum growth inhibitory concentration, Pseudomonas aeruginosa E-2
- Type: cell-based
- Design: unit not given here
- test.context: Pseudomonas aeruginosa E-2
Collected Minimum Growth Inhibitory Concentration values appear next to each entry.
The reply should be a number, written without any unit.

# compound, quantity.measured, experimental.result
records = [
    ("Nc1nc(/C(=N/OCc2cc(=O)c(O)cn2O)C(=O)N[C@@H]2C(=O)N3C(C(=O)[O-])=C(CSc4cc[n+](CCO)cc4)CS[C@H]23)cs1 [Example 3]", "Minimum Growth Inhibitory Concentration", 0.05),
]

Please find the next compound below.
What value of Minimum Growth Inhibitory Concentration has been reported for the following compound? C[n+]1ccc(SCC2=C(C(=O)[O-])N3C(=O)[C@@H](NC(=O)/C(=N\OCc4cc(=O)c(O)cn4O)c4csc(N)n4)[C@H]3SC2)c2c1CCC2 [Example 4]
0.10

* * *

- System: Proteus rettgeri GN-624
- method.notes: Minimum growth inhibitory concentration, Proteus rettgeri GN-624
- Format: cell-based
- Parameters: unit not given here
- test.context: Proteus rettgeri GN-624
Each record here notes measured Minimum Growth Inhibitory Concentration.
Kindly provide the number alone.

# molecule, Minimum Growth Inhibitory Concentration
rows = [
    ("Nc1nc(/C(=N/OCc2cc(=O)c(O)cn2O)C(=O)N[C@@H]2C(=O)N3C(C(=O)[O-])=C(C[n+]4ccccc4)CS[C@H]23)cs1", 3.13),
    ("Nc1nc(/C(=N/OCc2cc(=O)c(O)cn2O)C(=O)N[C@@H]2C(=O)N3C(C(=O)[O-])=C(CSc4cc[n+](CCO)cc4)CS[C@H]23)cs1", 0.10),
    ("C[n+]1ccc(SCC2=C(C(=O)[O-])N3C(=O)[C@@H](NC(=O)/C(=N\\OCc4cc(=O)c(O)cn4O)c4csc(N)n4)[C@H]3SC2)c2c1CCC2", 0.20),
    ("Nc1nc(/C(=N/OCc2cc(=O)c(O)c[nH]2)C(=O)N[C@@H]2C(=O)N3C(C(=O)[O-])=C(C[n+]4ccccc4)CS[C@H]23)cs1 [A, reference compound]", 12.5),
]

Given C[n+]1ccc(SCC2=C(C(=O)[O-])N3C(=O)[C@@H](NC(=O)/C(=N\OCc4cc(=O)c(O)cn4O)c4csc(N)n4)[C@H]3SC2)cc1 , state its recorded Minimum Growth Inhibitory Concentration.
0.10

Item under review: Cn1c(SCC2=C(C(=O)O)N3C(=O)[C@@H](NC(=O)/C(=N\OCc4cc(=O)c(O)cn4O)c4csc(N)n4)[C@H]3SC2)nnc(O)c1=O . Reported Minimum Growth Inhibitory Concentration?
0.20

* * *

- System: Serratia marcescens No. 1
- method.notes: Minimum growth inhibitory concentration, Serratia marcescens No. 1
- Assay type: cell-based
- Design: unit not given here
- test.context: Serratia marcescens No. 1
Measured Minimum Growth Inhibitory Concentration values are reported for all entries that follow.
Answer with the value's number alone.

Sample answers from the record:
# sample.smiles, Minimum Growth Inhibitory Concentration
records = [
    ("Nc1nc(/C(=N/OCc2cc(=O)c(O)cn2O)C(=O)N[C@@H]2C(=O)N3C(C(=O)[O-])=C(CSc4cc[n+](CCO)cc4)CS[C@H]23)cs1", 0.10),
    ("C[n+]1ccc(SCC2=C(C(=O)[O-])N3C(=O)[C@@H](NC(=O)/C(=N\\OCc4cc(=O)c(O)cn4O)c4csc(N)n4)[C@H]3SC2)c2c1CCC2", 0.10),
]

Shifting focus to the molecule that follows.
Value lookup for Minimum Growth Inhibitory Concentration; key = C[n+]1ccc(SCC2=C(C(=O)[O-])N3C(=O)[C@@H](NC(=O)/C(=N\OCc4cc(=O)c(O)cn4O)c4csc(N)n4)[C@H]3SC2)cc1
0.05

* * *

- Test system: Citrobacter freundii GN-346
- method.notes: Minimum growth inhibitory concentration, Citrobacter freundii GN-346
- Format: cell-based
- Design: unit not given here
- test.context: Citrobacter freundii GN-346
The label depends only on Minimum Growth Inhibitory Concentration: YES if it is at least 6, NO if it is smaller.

Study these solved cases before continuing.
# compound, study.target, classification
records = [
    ("C[n+]1ccc(SCC2=C(C(=O)[O-])N3C(=O)[C@@H](NC(=O)/C(=N\\OCc4cc(=O)c(O)cn4O)c4csc(N)n4)[C@H]3SC2)cc1", "Citrobacter freundii GN-346", "YES"),
    ("Nc1nc(/C(=N/OCc2cc(=O)c(O)c[nH]2)C(=O)N[C@@H]2C(=O)N3C(C(=O)[O-])=C(C[n+]4ccccc4)CS[C@H]23)cs1 [A, reference compound]", "Citrobacter freundii GN-346", "YES"),
    ("Nc1nc(/C(=N/OCc2cc(=O)c(O)cn2O)C(=O)N[C@@H]2C(=O)N3C(C(=O)[O-])=C(CSc4cc[n+](CCO)cc4)CS[C@H]23)cs1", "Citrobacter freundii GN-346", "YES"),
]

State whether the measured Minimum Growth Inhibitory Concentration reaches 6, counting equality as reaching it, for C[n+]1ccc(SCC2=C(C(=O)[O-])N3C(=O)[C@@H](NC(=O)/C(=N\OCc4cc(=O)c(O)cn4O)c4csc(N)n4)[C@H]3SC2)c2c1CCC2
NO

Assess whether reported Minimum Growth Inhibitory Concentration for Nc1nc(/C(=N/OCc2cc(=O)c(O)cn2O)C(=O)N[C@@H]2C(=O)N3C(C(=O)[O-])=C(C[n+]4ccccc4)CS[C@H]23)cs1 sits at 6 or higher.
YES

Is Minimum Growth Inhibitory Concentration at least 6? Consider Cn1c(SCC2=C(C(=O)O)N3C(=O)[C@@H](NC(=O)/C(=N\OCc4cc(=O)c(O)cn4O)c4csc(N)n4)[C@H]3SC2)nnc(O)c1=O
NO
